- Test system: 186277-243-T-J2-PDC complex spheroids, viability;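 note: spheroids exposed to compounds for 7 days before viability read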
- assay.name: Anticancer human tumor 186277-243-T-J2-PDC patient-derived colon adenocarcinoma cell line growth inhibition [RAS]; active = viability on the fitted dose curve at most 10% of control; inactive = the rest
- assay.setup: second compound 0.1 µM; first compound 1 µM
The categories you may choose from are y = active, n = inactive

Consider the following illustrative entries.
compound	target	qualitative.label
CC(Nc1ccc2c(c1)OCCn1cc(N3C(=O)OCC3C(F)F)nc1-2)C(N)=O (stereo not given) + C#Cc1c(F)ccc2cc(O)cc(-c3ncc4c(N5CC6CCC(C5)N6)nc(OCC56CCCN5CC(F)C6)nc4c3F)c12	186277-243-T-J2-PDC complex spheroids, viability	y
CC1(O)CCCC1n1c(=O)c(C(F)F)cc2cnc(NC3CCN(S(C)(=O)=O)CC3)nc21 (stereo not given) + C=CC(=O)N1CCN(c2nc(OCC3CCCN3C)nc3c(F)c(-c4nc(N)cc(C)c4C(F)(F)F)c(Cl)cc23)C(C)C1	186277-243-T-J2-PDC complex spheroids, viability	n
CCC(CC)c1cc(NC2CCC(N)C2)n2nccc2n1 (stereo not given) + C=CC(=O)N1CCN(c2nc(OCC3CCCN3C)nc3c(F)c(-c4nc(N)cc(C)c4C(F)(F)F)c(Cl)cc23)C(C)C1	186277-243-T-J2-PDC complex spheroids, viability	n
C[C@@H](NC(=O)c1ncnc(N)c1Cl)c1ncc(C(=O)Nc2cc(C(F)(F)F)c(Cl)cn2)s1 + C#Cc1c(F)ccc2cc(O)cc(-c3ncc4c(N5CC6CCC(C5)N6)nc(OCC56CCCN5CC(F)C6)nc4c3F)c12	186277-243-T-J2-PDC complex spheroids, viability	n

Would you kindly look at the next entry?
Ask | Query: recorded result category for C=CC(=O)N1CCN(c2nc(OCC3CCCN3C)nc3c(F)c(-c4nc(N)cc(C)c4C(F)(F)F)c(Cl)cc23)C(C)C1 (stereo not given) + C#Cc1c(F)ccc2cc(O)cc(-c3ncc4c(N5CC6CCC(C5)N6)nc(OCC56CCCN5CC(F)C6)nc4c3F)c12 in this test
Reply | n
